target: CaFus1; assay: SPOT peptide array binding signal intensity (averaged, normalized) (arbitrary units (background-subtracted, floor 0; scale differs between SH3 domains)); higher = stronger binding of the SH3 domain to the peptide
measured_attribute: SPOT peptide array binding signal intensity

{"binder": "LRIKRKPVQTFFEFI", "recorded_result": 1010}
{"binder": "KKEKKPPKIPKKVYT", "recorded_result": 99}
{"binder": "NAGIRPKFILALNDE", "recorded_result": 1120}
{"binder": "EEEEEHPPLPARRKS", "recorded_result": 9.5}
{"binder": "LRWRHKFFLPAIAAI", "recorded_result": 728}
